For each record, write down the corresponding drug sensitivity score.
# System: CAF#3 (primary prostate cancer-associated fibroblasts of myCAF-like type)
# ASSAY: drug sensitivity score (DSS2, normalised partial AUC of dose-response, 72 h CellTiter-Glo viability) (DSS (dimensionless)); higher = more sensitive (stronger growth inhibition / cytotoxicity); extreme values may be limits of the assay
One number for each entry.

The examples below pair each entry with its known result.
[
  {
    "COMPOUND": "CC(C)C(=O)Nc1ccc([N+](=O)[O-])c(C(F)(F)F)c1 [Flutamide] (tested concentration range 1-10000 nM)",
    "ASSAYED TARGET": "CAF#3",
    "RESULT NUMBER": 0
  },
  {
    "COMPOUND": "CCc1c(C(=O)C(N)=O)c2c(OCC(=O)O)cccc2n1Cc1ccccc1 [Varespladib] (tested concentration range 1-10000 nM)",
    "ASSAYED TARGET": "CAF#3",
    "RESULT NUMBER": 0
  },
  {
    "COMPOUND": "Cc1ccc(=O)n(-c2ccccc2)c1 [Pirfenidone] (tested concentration range 1-10000 nM)",
    "ASSAYED TARGET": "CAF#3",
    "RESULT NUMBER": 0
  }
]

Could I get drug sensitivity score for every one of these entries?
1. CC[C@@]1(O)C(=O)OCc2c1cc1n(c2=O)Cc2cc3c(CN(C)C)c(O)ccc3nc2-1 [Topotecan] (tested concentration range 1-10000 nM)
2. COc1cc2c(cc1OCCCN1CCCC1)N=C(N)C21CCC1 [A-366] (tested concentration range 2.5-25000 nM)

4.8
0.7

Give drug sensitivity score for all compounds that follow.
1. Nc1ccccc1NC(=O)c1ccc(CNC(=O)OCc2cccnc2)cc1 [Entinostat] (tested concentration range 1-10000 nM)
2. CCn1c(-c2nonc2N)nc2c(C#CC(C)(C)O)ncc(OC[C@H]3CCCNC3)c21 (tested concentration range 1-10000 nM)
3. FC(F)(F)c1ccc(/C=C/c2nc(COc3ccc(CCCCn4ccnn4)cc3)co2)cc1 [Mubritinib] (tested concentration range 0.1-1000 nM)
4. Nc1ccccc1NC(=O)c1ccc(CNc2nccc(-c3cccnc3)n2)cc1 [Mocetinostat] (tested concentration range 1-10000 nM)
5. S=c1[nH]cnc2nc[nH]c12 [Mercaptopurine] (tested concentration range 1-10000 nM)

2.4
0
0
9.2
0.1
